- System: K. pneumoniae ATCC13883
- test summary: Bacterial susceptibility testing, MIC by broth microdilution (CLSI)
- Format: cell-based
- test settings: Klebsiella pneumoniae, ATCC13883, broth microdilution, 35° C., 18-24 h; read-out: MIC K. pneumoniae ATCC13883
// boundary case: MIC equal to 2 µg/mL maps to NO; strictly smaller maps to YES

Query: Strictly below 2 µg/mL in MIC? CC(=O)O[C@@H]1C[C@H]1c1ccc(-c2ccc(/C=C/[C@@H](CO)n3ccnc3[C@H](C)O)cc2)cc1 [Compound 69]
Result: YES

Query: Please state whether MIC is below 2 µg/mL for C[C@H](O)c1nccn1[C@@H](/C=C/c1ccc(-c2ccc(C3CC(CNCc4noc(C(N)=O)n4)C3)cc2)cc1)CO (stereo partly drawn) [Compound 57]
Result: YES

Query: Below 2 µg/mL on MIC? Entry C[C@H](O)c1nccn1[C@@H](/C=C/c1ccc(-c2ccc(C3CC3OC(CO)CO)cc2)cc1)CO (stereo partly drawn) [Compound 70]
Result: NO

Query: Take the molecule C[C@H](O)c1nccn1C/C=C/c1ccc(-c2ccc(O[C@@H]3C[C@H]3N)cc2)cc1 (racemic) [Compound 4] and say whether its MIC is less than 2 µg/mL.
Result: YES

Query: # strict comparison: is reported MIC < 2 µg/mL? input = C[C@H](O)c1nccn1[C@@H](/C=C/c1ccc(-c2ccc(C3CC(NCc4cocn4)C3)cc2)cc1)CO (stereo partly drawn) [Compound 40]
Result: YES

Query: API: query returns whether the molecule falls strictly under 2 µg/mL in MIC. Query: C[C@H](O)c1nccn1[C@@H](/C=C/c1ccc(-c2ccc(OCCN(CCO)CCO)cc2)cc1)CO [Compound 28]
Result: NO

Query: is_below(MIC, 2 µg/mL) for C[C@H](O)c1nccn1[C@@H](/C=C/c1ccc(-c2ccc(OCC(O)CN)cc2)cc1)CO (mixture of isomers) [Compound 22] ?
Result: NO

Query: Lab note: confirm whether the reported MIC for this molecule is below 2 µg/mL, equality not counting. molecule: C[C@H](O)c1nccn1[C@@H](/C=C/c1ccc(-c2ccc(C3CC(NCc4noc(C(N)=O)n4)C3)cc2)cc1)CO (stereo partly drawn) [Compound 47]
Result: YES

Query: Problem: For the molecule C[C@H](O)c1nccn1[C@@H](/C=C/c1ccc(-c2ccc(C3CC(C(=O)NCCO)C3)cc2)cc1)CO (stereo partly drawn) [Compound 49] , is MIC under 2 µg/mL?
Result: NO

Query: # check: MIC < 2 µg/mL for C[C@H](O)c1nccn1[C@@H](/C=C/c1ccc(-c2ccc(C3CC(C(=O)NCc4cocn4)C3)cc2)cc1)CO (stereo partly drawn) [Compound 54]
Result: YES

Query: Consider C[C@H](O)c1nccn1[C@@H](/C=C/c1ccc(-c2ccc(C3CC(CNC(C#N)CO)C3)cc2)cc1)CO (stereo partly drawn) [Compound 59] . Does its MIC lie strictly below 2 µg/mL?
Result: NO

Query: Below 2 µg/mL on MIC? Entry C[C@H](O)c1nccn1[C@@H](/C=C/c1ccc(-c2ccc(CO[C@H]3C[C@H]3N)cc2)cc1)CO (racemic) [Compound 16]
Result: NO

Query: Could you please tell me whether MIC recorded for C[C@H](O)c1nccn1[C@@H](/C=C/c1ccc(-c2ccc(C3CC(NCC(=O)O)C3)cc2)cc1)CO (stereo partly drawn) [Compound 44] is less than 2 µg/mL?
Result: NO
